Biological target: T1, murine heparanase (murine, UniProt Q6YGZ1 28-535, limits assumed)
T1 construct: also called Mouse; recombinant murine heparanase
T1 sequence (looked up): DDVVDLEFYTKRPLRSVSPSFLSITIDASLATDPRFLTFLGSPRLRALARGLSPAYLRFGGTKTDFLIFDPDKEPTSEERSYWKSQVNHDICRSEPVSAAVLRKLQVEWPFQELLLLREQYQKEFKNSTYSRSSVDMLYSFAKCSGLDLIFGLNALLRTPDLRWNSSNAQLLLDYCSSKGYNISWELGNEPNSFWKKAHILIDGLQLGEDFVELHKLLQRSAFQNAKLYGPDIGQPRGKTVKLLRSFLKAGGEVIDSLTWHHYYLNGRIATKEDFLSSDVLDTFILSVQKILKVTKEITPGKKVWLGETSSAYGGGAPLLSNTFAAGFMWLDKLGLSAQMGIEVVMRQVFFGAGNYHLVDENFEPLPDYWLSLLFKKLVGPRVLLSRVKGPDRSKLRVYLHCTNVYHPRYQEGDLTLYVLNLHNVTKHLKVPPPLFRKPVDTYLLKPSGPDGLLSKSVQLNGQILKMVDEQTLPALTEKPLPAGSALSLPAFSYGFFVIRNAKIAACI
Experiment: cross species capture ELISA, heparanase captured by rabbit anti-heparanase antibody, exhaustive supernatant 1:5, anti-human IgG Fc detection
endpoint: OD, binding to heparanase (Mouse) (OD units)
Give just the numeric value; OD units need not be written.

Exercise: Bench note: what OD, binding to heparanase (Mouse) did monoclonal antibody 15A1.2 (antibody, V domains shown, Fully human (XenoMouse) antibody; also called ATCC PTA-9491) VH: QVQLVQSGAEVKKPGASVKVSCKVSGYTLTELSMHWVRQAPGKGLEWMGGFDPEDGETIFAQKFQGRVTMTEDTSTDTAYMELSSLRSEDTAVYYCATGLRFLEWFLWGWDVWGQGTTVTVSS VL: DIQMTQSPSSVSASVGDRVTITCRASQGISNWLAWYQQTPGKAPQLLIYGASSLQSGVPSRFSGSGSGTDFTLTISSLQPEDFATYYCQQADSFPPTFGQGTKVEIK show?
Solution: 0.14

Exercise: Then monoclonal antibody 14H12.3 (antibody, V domains shown, Fully human (XenoMouse) antibody) VH: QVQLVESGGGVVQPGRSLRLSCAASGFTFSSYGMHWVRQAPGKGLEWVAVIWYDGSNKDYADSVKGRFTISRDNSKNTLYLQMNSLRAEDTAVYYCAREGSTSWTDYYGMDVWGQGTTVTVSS VL: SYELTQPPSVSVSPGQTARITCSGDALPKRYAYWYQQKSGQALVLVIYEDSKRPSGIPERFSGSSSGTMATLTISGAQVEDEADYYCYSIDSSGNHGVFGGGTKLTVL ?
Solution: 0.14

Exercise: Same thing, different binder: monoclonal antibody 16G1.1 (antibody, V domains shown, Fully human (XenoMouse) antibody) VH: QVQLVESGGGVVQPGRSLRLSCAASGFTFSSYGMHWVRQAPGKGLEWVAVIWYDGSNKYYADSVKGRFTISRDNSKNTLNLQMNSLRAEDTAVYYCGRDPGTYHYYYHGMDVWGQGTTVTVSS VL: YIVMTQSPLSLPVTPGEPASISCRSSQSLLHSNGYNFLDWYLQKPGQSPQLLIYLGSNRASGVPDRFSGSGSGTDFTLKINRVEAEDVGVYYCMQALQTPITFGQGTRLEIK
Solution: 0.61

Exercise: Also monoclonal antibody 10E9.1 (antibody, V domains shown, Fully human (XenoMouse) antibody; also called mAb 10E9.1; ATCC PTA-9489) VH: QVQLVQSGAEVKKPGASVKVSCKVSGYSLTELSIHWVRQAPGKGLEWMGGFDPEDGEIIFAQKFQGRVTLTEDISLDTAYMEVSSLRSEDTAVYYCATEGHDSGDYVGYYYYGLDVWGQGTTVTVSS VL: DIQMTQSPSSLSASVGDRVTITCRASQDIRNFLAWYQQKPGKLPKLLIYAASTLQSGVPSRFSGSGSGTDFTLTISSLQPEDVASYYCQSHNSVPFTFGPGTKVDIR ?
Solution: 0.49
